assay: Intrinsic aqueous solubility and solubility increase in nanoparticles; type: physicochemical; conditions: aqueous medium
Measurement name: solubility (µg/mL)

- Line notation: "CC(=O)Nc1cccc(-n2c(=O)n(C3CC3)c(=O)c3c(Nc4ccc(I)cc4F)n(C)c(=O)c(C)c32)c1"
  Quantity unit: "µg/mL"
  solubility: 6

[P] CO[C@H]1C[C@@H]2CC[C@@H](C)[C@@](O)(O2)C(=O)C(=O)N2CCCC[C@H]2C(=O)O[C@H]([C@H](C)C[C@@H]2CC[C@@H](OCCO)[C@H](OC)C2)CC(=O)[C@H](C)/C=C(\C)[C@@H](O)[C@@H](OC)C(=O)[C@H](C)C[C@H](C)/C=C/C=C/C=C/1C
[Q] O=c1cc(N2CCOCC2)oc2c(-c3ccccc3)cccc12
[R] CC(C)(C)c1nc(-c2cccc(NS(=O)(=O)c3c(F)cccc3F)c2F)c(-c2ccnc(N)n2)s1
Enquiry: Sequence the entries by solubility, beginning with the highest number. Note for the reader: the ranking is given by listing the labels in the order requested.
Return: Q, P, R
